Test system: E. coli clinical strain E19
Test: microbe, parasite or virus in culture
Conditions: strain E19
Readout Label: susceptibility category (S/I/R) given with the MIC

[[record]]
molecule = "CO/N=C(\\C(=O)N[C@@H]1C(=O)N2C(C(=O)[O-])=C(C[N+]3(C)CCCC3)CS[C@H]12)c1csc(N)n1 [FEP, cefepime]"
system_name = "E. coli clinical strain E19"
test_result = "R"

[[record]]
molecule = "CN(C)[C@@H]1C(O)=C(C(N)=O)C(=O)[C@@]2(O)C(O)=C3C(=O)c4c(O)cccc4[C@@](C)(O)[C@H]3C[C@@H]12 [TET, tetracycline]"
system_name = "E. coli clinical strain E19"
test_result = "S"

[[record]]
molecule = "C[C@H]1COc2c(N3CCN(C)CC3)c(F)cc3c(=O)c(C(=O)O)cn1c23 [LEV, levofloxacin]"
system_name = "E. coli clinical strain E19"
test_result = "R"

[[record]]
molecule = "C[C@@H](O)[C@H]1C(=O)N2C(C(=O)O)=C(SCCN=CN)C[C@H]12 [IPM, imipenem]"
system_name = "E. coli clinical strain E19"
test_result = "S"


Cited source: paper PMC10847306
